Data provenance: patent US20250152585A1

Parameter pKd: see the listing below.
Assay system: N-terminally FLAG-tagged PARP2 (amino acids 1-583) (Homo sapiens, UniProt Q9UGN5)
Construct: N-terminally FLAG-tagged PARP2 (amino acids 1-583)
Sequence (Q9UGN5 whole entry, the tested form may be a part): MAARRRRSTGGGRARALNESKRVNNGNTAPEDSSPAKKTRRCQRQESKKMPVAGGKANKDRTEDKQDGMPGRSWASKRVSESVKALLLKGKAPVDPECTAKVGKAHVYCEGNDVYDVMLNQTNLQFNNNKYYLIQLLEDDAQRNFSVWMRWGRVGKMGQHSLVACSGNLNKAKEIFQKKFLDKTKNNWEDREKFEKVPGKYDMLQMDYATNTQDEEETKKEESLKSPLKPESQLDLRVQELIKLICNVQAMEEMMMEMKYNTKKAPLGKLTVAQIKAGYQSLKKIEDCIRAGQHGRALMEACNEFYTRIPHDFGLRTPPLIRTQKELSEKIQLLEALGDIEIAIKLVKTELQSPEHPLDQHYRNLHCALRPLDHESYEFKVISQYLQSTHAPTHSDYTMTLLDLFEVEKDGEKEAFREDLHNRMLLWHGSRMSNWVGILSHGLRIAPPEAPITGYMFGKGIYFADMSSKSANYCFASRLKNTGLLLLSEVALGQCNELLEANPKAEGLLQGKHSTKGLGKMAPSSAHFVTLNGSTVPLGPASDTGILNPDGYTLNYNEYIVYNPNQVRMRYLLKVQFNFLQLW
Assay remarks: PARP2 probe displacement HTRF assay
Format: binding
Experimental conditions: binned Kd, probe displacement HTRF
pKd: −log10 of the molar value.

Worked examples follow.
What does the data say about its pKd? Entry: CCc1cnc(C23CC(C2)N(C2CCN(c4ccc(C(=O)NC)nc4F)CC2)C3)[nH]c1=O 5.00 to 6.00

What does the data say about its pKd? Entry: O=c1[nH]c2ccc(N3CCC(N4CCC(c5cc6ccccc6c(=O)[nH]5)C4)CC3)cc2[nH]1 (racemic) 6.00 to 7.00

What does the data say about its pKd? Entry: CCc1ccc(C2CCN(C3CCN(c4cnc(C(=O)NC)cc4C(F)(F)F)CC3)C2)[nH]c1=O (single isomer, unassigned) [Compound 298b] 5.00 to 6.00

Others:
What does the data say about its pKd? Entry: CNC(=O)c1cnc(N2CCC(N3CCC(c4nc5ccccc5c(=O)[nH]4)C3)CC2)nc1 (racemic) 6.00 to 7.00

###

Assay system: full length N-terminally FLAG-tagged PARP1 (Homo sapiens, UniProt P09874)
Sequence (P09874 whole entry): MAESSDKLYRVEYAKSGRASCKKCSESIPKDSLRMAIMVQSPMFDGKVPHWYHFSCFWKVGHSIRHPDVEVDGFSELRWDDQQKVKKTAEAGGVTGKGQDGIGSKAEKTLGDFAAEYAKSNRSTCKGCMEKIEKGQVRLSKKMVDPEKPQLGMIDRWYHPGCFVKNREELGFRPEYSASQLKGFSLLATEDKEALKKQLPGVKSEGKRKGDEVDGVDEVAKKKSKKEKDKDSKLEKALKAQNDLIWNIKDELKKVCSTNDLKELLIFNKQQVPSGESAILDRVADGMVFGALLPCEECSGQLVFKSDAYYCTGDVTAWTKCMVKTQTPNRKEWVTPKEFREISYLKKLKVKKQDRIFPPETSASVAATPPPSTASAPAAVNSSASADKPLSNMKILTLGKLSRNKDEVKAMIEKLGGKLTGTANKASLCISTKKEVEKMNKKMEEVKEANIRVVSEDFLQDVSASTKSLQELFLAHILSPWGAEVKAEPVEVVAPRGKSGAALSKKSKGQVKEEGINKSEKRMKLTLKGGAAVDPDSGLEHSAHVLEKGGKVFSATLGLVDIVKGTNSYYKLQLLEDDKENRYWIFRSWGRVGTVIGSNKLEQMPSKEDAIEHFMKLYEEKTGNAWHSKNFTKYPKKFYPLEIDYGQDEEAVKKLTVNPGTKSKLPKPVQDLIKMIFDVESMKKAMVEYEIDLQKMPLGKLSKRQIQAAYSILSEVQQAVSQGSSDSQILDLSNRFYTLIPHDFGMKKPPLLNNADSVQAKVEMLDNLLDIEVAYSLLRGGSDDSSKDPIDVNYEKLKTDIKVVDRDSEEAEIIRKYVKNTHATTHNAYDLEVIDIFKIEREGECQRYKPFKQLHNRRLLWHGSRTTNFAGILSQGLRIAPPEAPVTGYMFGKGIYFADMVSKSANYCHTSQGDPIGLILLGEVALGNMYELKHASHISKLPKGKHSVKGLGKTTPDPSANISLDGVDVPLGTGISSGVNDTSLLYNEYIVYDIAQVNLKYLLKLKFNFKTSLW
Assay remarks: PARP1 probe displacement HTRF assay
Experimental conditions: read-out: PARP1 HTRF; binned Kd, PARP1 probe displacement HTRF
Parameter Kd: see the listing below.

Worked examples follow.
What does the data say about its Kd? Entry: O=c1[nH]c(C2CCCN(C3CCN(c4ccc(F)cc4F)CC3)C2)nc2ccccc12 (single isomer, unassigned) [Compound 113b] 0.1 to 1 µM

What does the data say about its Kd? Entry: CNC(=O)c1ccc(N2CCC(N3CCC(c4ncc(C(F)(F)F)c(=O)[nH]4)C3)CC2)cn1 (single isomer, unassigned) [Compound 56b] 0.1 to 1 µM

Others:
What does the data say about its Kd? Entry: CCc1ccc(C2CCN(C3CCN(c4ccc(C(=O)NCCF)nc4)CC3)C2)[nH]c1=O (single isomer, unassigned) [Compound 165a] < 0.01 µM

What does the data say about its Kd? Entry: CNC(=O)c1ccc(N2CCC(N3CCC(c4nc5cccc(F)c5c(=O)[nH]4)C3)CC2)cn1 (single isomer, unassigned) [Compound 101a] 0.01 to 0.1 µM

What does the data say about its Kd? Entry: CNC(=O)c1ccc(N2CCC(N3CCCC(c4ncc(C)c(=O)[nH]4)C3)CC2)cn1 (single isomer, unassigned) [Compound 33b] 0.01 to 0.1 µM

What does the data say about its Kd? Entry: CNC(=O)c1ccc(N2CCC(N3CCC(c4nc5ccncc5c(=O)[nH]4)C3)CC2)cn1 (single isomer, unassigned) [Compound 81b] 0.01 to 0.1 µM

###

Assay system: full length N-terminally FLAG-tagged PARP1 (Homo sapiens, UniProt P09874)
Assay remarks: PARP1 biochemical DELFIA assay (auto-PARylation)
Design: recombinant full length human N-terminally FLAG-tagged PARP1
Experimental conditions: binned IC50, biochemical auto-PARylation assay
pIC50: −log10 of the molar value.
Observable: pIC50

Worked examples follow.
What does the data say about its pIC50? Entry: CC(=O)NC(=O)c1ccc(N2CCC(N3CCC(c4cc5ccccc5c(=O)[nH]4)C3)CC2)cc1 (single isomer, unassigned) [Compound 341b] 7.00 to 8.00

What does the data say about its pIC50? Entry: CNC(=O)c1ccc(N2CCC(N3CC4(c5nc6cccc(C(F)(F)F)c6c(=O)[nH]5)CC3C4)CC2)cn1 [Compound 394] > 8.00

Others:
What does the data say about its pIC50? Entry: CNS(=O)(=O)c1ccc(N2CCC(N3CCC(c4cc5ccccc5c(=O)[nH]4)C3)CC2)cc1 (single isomer, unassigned) [Compound 346a] > 8.00

###

Parameter pKd: see the listing below.
Assay system: N-terminally FLAG-tagged PARP2 (amino acids 1-583) (Homo sapiens, UniProt Q9UGN5)
Construct: N-terminally FLAG-tagged PARP2 (amino acids 1-583)
Assay remarks: PARP2 probe displacement HTRF assay
Type: binding
Experimental conditions: binned Kd, PARP2 probe displacement HTRF
pKd: −log10 of the molar value.

What does the data say about its pKd? Entry: CCc1cnc(C2CCN(C3CCC(F)(F)CC3)C2)[nH]c1=O (single isomer, unassigned) [Compound 38a] 5.00 to 6.00

Next molecule, please.
What does the data say about its pKd? Entry: O=c1[nH]c(C2CCN(C3CCC(F)(F)CC3)C2)nc2ccccc12 (single isomer, unassigned) [Compound 4a] 6.00 to 7.00

###

Parameter Kd: see the listing below.
Assay system: full length N-terminally FLAG-tagged PARP1 (Homo sapiens)
Assay remarks: PARP1 probe displacement HTRF assay
Experimental conditions: read-out: PARP1 HTRF; binned Kd, PARP1 probe displacement HTRF

Worked examples follow.
What does the data say about its Kd? Entry: CCc1ccc(C2CCN(C3CCN(c4ccc(C(=O)NCC(F)(F)F)nc4)CC3)C2)[nH]c1=O (racemic) < 10 nM

What does the data say about its Kd? Entry: CNC(=O)c1ccc(N2CCC(N3CCC(c4cc5cccc(F)c5c(=O)[nH]4)C3)CC2)nn1 (single isomer, unassigned) [Compound 209a] < 10 nM

What does the data say about its Kd? Entry: CNC(=O)c1ccc(OCCN2CCCC(c3nc4ccccc4c(=O)[nH]3)C2)cn1 (single isomer, unassigned) [Compound 65a] < 10 nM

What does the data say about its Kd? Entry: CNC(=O)c1ccc(N2CCC(N3CCCC(c4cc5ccccc5c(=O)[nH]4)C3)CC2)cn1 (single isomer, unassigned) [Compound 100b] 10 to 100 nM

What does the data say about its Kd? Entry: CNC(=O)c1ccc(N2CCC(N3CCC(c4nc5c(c(C(F)(F)F)nn5C)c(=O)[nH]4)C3)CC2)cn1 (single isomer, unassigned) [Compound 187a] 10 to 100 nM

Others:
What does the data say about its Kd? Entry: CNC(=O)c1ccc(N2CCC(N3CCC(c4cc5cccc(F)c5c(=O)[nH]4)C3)CC2)c(Cl)n1 (single isomer, unassigned) [Compound 183a] < 10 nM

What does the data say about its Kd? Entry: CNC(=O)c1ccc(N2CCC(N3CCC(c4cc5ccc(Cl)cc5c(=O)[nH]4)C3)CC2)cn1 (single isomer, unassigned) [Compound 129b] < 10 nM

###

Parameter pKd: see the listing below.
Assay system: UniProtKB P09874
Assay remarks: PARP1 probe displacement HTRF assay
Experimental conditions: read-out: PARP1 HTRF; binned Kd, probe displacement HTRF
pKd: −log10 of the molar value.

Worked examples follow.
What does the data say about its pKd? Entry: CCc1ccc(C2CCN(C3CCN(c4cnc(C(=O)NC)nc4Cl)CC3)C2)[nH]c1=O (racemic) [Compound 242rac] > 8.00

What does the data say about its pKd? Entry: O=c1[nH]c(C2CCN(C3CCN(c4ccc(OC(F)F)nc4)CC3)C2)cc2ccc(F)cc12 (single isomer, unassigned) [Compound 374b] > 8.00

What does the data say about its pKd? Entry: CC(=O)Nc1ccc(N2CCC(N3CCC(c4nc5ccccc5c(=O)[nH]4)C3)CC2)cn1 (single isomer, unassigned) [Compound 262b] 6.00 to 7.00

Others:
What does the data say about its pKd? Entry: CNC(=O)c1ccc(N2CCC(N3CCC(c4cc5cccc(F)c5c(=O)[nH]4)C3)CC2)c(C#N)c1 (single isomer, unassigned) [Compound 345a] > 8.00

What does the data say about its pKd? Entry: CC(=O)Nc1ccc(N2CCC(N3CCC(c4nc5ccccc5c(=O)[nH]4)C3)CC2)cn1 (single isomer, unassigned) [Compound 220a] 6.00 to 7.00

###

Assay system: N-terminally FLAG-tagged PARP2 (amino acids 1-583) (Homo sapiens)
Construct: N-terminally FLAG-tagged PARP2 (amino acids 1-583)
Assay remarks: PARP2 probe displacement HTRF assay
Assay type: binding
Experimental conditions: binned Kd, probe displacement HTRF
Protocol: Data analysis was performed identical as for PARP1.
Parameter Kd: see the listing below.

What does the data say about its Kd? Entry: O=c1[nH]c(C2CCN(C3CCN(c4ccc(-c5nnn[nH]5)nc4)CC3)C2)nc2ccccc12 (racemic) 0.1 to 1 µM

Others:
What does the data say about its Kd? Entry: CNC(=O)c1ccc(N2CCC(N3CCC(c4nc5c(c(=O)[nH]4)COC5)C3)CC2)cn1 (single isomer, unassigned) [Compound 272a] > 10 µM

What does the data say about its Kd? Entry: N#Cc1ccc(N2CCC(N3CCC(c4cc5cccc(F)c5c(=O)[nH]4)C3)CC2)cn1 (single isomer, unassigned) [Compound 316b] 0.1 to 1 µM

What does the data say about its Kd? Entry: CCc1ccc(C2CCN(C3CCN(c4ccc(OC(F)F)nc4)CC3)C2)[nH]c1=O (single isomer, unassigned) [Compound 382a] > 10 µM

What does the data say about its Kd? Entry: CNC(=O)c1cnc(N2CCC(N3CCC(c4cc5ccccc5c(=O)[nH]4)C3)CC2)s1 (racemic) [Compound 320rac] 1 to 10 µM

What does the data say about its Kd? Entry: CNC(=O)c1ncc(N2CCC(N3CCC(c4cc5ccc(F)cc5c(=O)[nH]4)C3)CC2)c(C)n1 (single isomer, unassigned) [Compound 265b] 0.1 to 1 µM

What does the data say about its Kd? Entry: CS(=O)(=O)NC(=O)c1ccc(N2CCC(N3CCC(c4cc5ccccc5c(=O)[nH]4)C3)CC2)cc1 (single isomer, unassigned) [Compound 342a] 0.1 to 1 µM

What does the data say about its Kd? Entry: CCc1ccc(C2CCN(C3CCN(c4cnc(C(=O)NC)nc4C(F)(F)F)CC3)C2)[nH]c1=O (racemic) > 10 µM

What does the data say about its Kd? Entry: N#Cc1ccc(N2CCC(N3CCC(c4cc5ccc(F)cc5c(=O)[nH]4)C3)CC2)c(Cl)c1 (single isomer, unassigned) [Compound 386a] 0.1 to 1 µM

What does the data say about its Kd? Entry: CNC(=O)c1ccc(N2CCC(N3CCC(c4cc5cccc(F)c5c(=O)[nH]4)C3)CC2)cc1F (single isomer, unassigned) [Compound 281a] 0.01 to 0.1 µM

What does the data say about its Kd? Entry: CNC(=O)c1ccc(N2CCC(N3CCC(c4nc5[nH]nc(C(F)(F)F)c5c(=O)[nH]4)C3)CC2)c(F)n1 (single isomer, unassigned) [Compound 267a] 0.1 to 1 µM

What does the data say about its Kd? Entry: CNC(=O)c1ccc(N2CCC(N3CCC(c4cc5ncc(F)cc5c(=O)[nH]4)C3)CC2)cn1 (single isomer, unassigned) [Compound 315b] 0.1 to 1 µM
